Source listed as the supplement of paper PMC7877785.

# procedureDetails: self-splicing fitness, log relative to wild type (ln ratio); higher = more splicing; Tetrahymena group I intron in knt gene, E. coli kanamycin selection, DiMSum; sequences stand for … in CUCUCU…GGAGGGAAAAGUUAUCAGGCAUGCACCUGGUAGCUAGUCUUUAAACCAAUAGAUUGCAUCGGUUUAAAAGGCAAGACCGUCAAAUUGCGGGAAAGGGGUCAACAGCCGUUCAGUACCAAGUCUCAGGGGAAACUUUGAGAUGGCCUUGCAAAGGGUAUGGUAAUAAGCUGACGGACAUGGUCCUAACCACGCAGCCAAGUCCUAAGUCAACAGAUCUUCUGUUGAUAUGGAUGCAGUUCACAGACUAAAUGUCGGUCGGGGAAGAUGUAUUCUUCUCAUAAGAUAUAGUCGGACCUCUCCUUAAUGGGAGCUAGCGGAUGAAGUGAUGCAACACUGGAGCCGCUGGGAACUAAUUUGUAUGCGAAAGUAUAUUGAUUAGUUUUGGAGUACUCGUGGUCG;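 also: selection with 25 µg/mL kanamycin versus none on LB agar overnight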
# recordedConditions: 37 °C
Lab note: compare self-splicing fitness (ln) against -2. Equal or greater, write 1 (yes). Smaller, write 0 (no).

Task: Is self-splicing fitness (ln) at least -2? Consider GGCUAGCAAUAUUACGCUCU
Output: 1 (yes)

Task: // inclusive: self-splicing fitness (ln) at least -2? input: GGACAGCAAUAUUACGUAAC
Output: 1 (yes)

Task: Test whether the sequence UCUCAGCAAUAUUACGCUUA records self-splicing fitness (ln) of -2 or higher.
Output: 0 (no)

Task: Is the recorded value of self-splicing fitness (ln) equal to or greater than -2 for this sequence? CGAGAGCAAUAUUACGGUAU
Output: 0 (no)

Task: # bool: self-splicing fitness (ln) of UCCGAGCAAUAUUACGCUAG >= -2
Output: 0 (no)

Task: Reported self-splicing fitness (ln) at or above -2? CUAAAGCAAUAUUACGUCCG
Output: 1 (yes)

Task: Could you tell me if the measured self-splicing fitness (ln) of UUCAAGCAAUAUUACGUACU reaches -2 or more?
Output: 1 (yes)

Task: State whether the measured self-splicing fitness (ln) reaches -2, counting equality as reaching it, for ACACAGCAAUAUUACGAGUG
Output: 1 (yes)

Task: # bool: self-splicing fitness (ln) of ACGGAGCAAUAUUACGGCGC >= -2
Output: 1 (yes)

Task: Threshold query (self-splicing fitness (ln) >= -2) on GGAGAGCAAUAUUACGGAUG
Output: 1 (yes)

Task: Has GCCUAGCAAUAUUACGACAC a recorded self-splicing fitness (ln) greater than or equal to -2?
Output: 1 (yes)

Task: Determine whether this sequence has self-splicing fitness (ln) no lower than -2: AUACAGCAAUAUUACGAACC
Output: 1 (yes)

Task: Has CUGCAGCAAUAUUACGGCGU a recorded self-splicing fitness (ln) greater than or equal to -2?
Output: 1 (yes)

Task: Exam item: decide whether the reported self-splicing fitness (ln) for GCGUAGCAAUAUUACGAGCU is at least -2.
Output: 1 (yes)

Task: In plain terms: is recorded self-splicing fitness (ln) at least -2 for UCCAAGCAAUAUUACGUCUA ?
Output: 1 (yes)

Task: Please check the record UACGAGCAAUAUUACGUCGG and state if its self-splicing fitness (ln) is at or above -2.
Output: 1 (yes)

Task: Is self-splicing fitness (ln) for GGCUAGCAAUAUUACGCGUU at or above -2?
Output: 1 (yes)

Task: Does the sequence UCAUAGCAAUAUUACGGUUA have recorded self-splicing fitness (ln) that is -2 or more?
Output: 1 (yes)

Task: Hi, just wondering whether CGACAGCAAUAUUACGUUGA shows self-splicing fitness (ln) of -2 or higher.
Output: 1 (yes)

Task: // inclusive: self-splicing fitness (ln) at least -2? input: CCACAGCAAUAUUACGGUUA
Output: 0 (no)

Task: Given CUUAAGCAAUAUUACGGGAG , state whether its self-splicing fitness (ln) is at least -2.
Output: 0 (no)

Task: Assess whether reported self-splicing fitness (ln) for AAAGAGCAAUAUUACGCUAG sits at -2 or higher.
Output: 0 (no)

Task: Does the sequence GAACAGCAAUAUUACGUGAU have recorded self-splicing fitness (ln) that is -2 or more?
Output: 1 (yes)

Task: Test whether the sequence AGCGAGCAAUAUUACGACCG records self-splicing fitness (ln) of -2 or higher.
Output: 1 (yes)

Task: Is it the case that GAUAAGCAAUAUUACGUGUA has self-splicing fitness (ln) reaching or exceeding -2?
Output: 1 (yes)

Task: Hi, just wondering whether CUACAGCAAUAUUACGCAAA shows self-splicing fitness (ln) of -2 or higher.
Output: 0 (no)

Task: Does the sequence GGGAAGCAAUAUUACGACGU have recorded self-splicing fitness (ln) that is -2 or more?
Output: 1 (yes)

Task: Is the recorded value of self-splicing fitness (ln) equal to or greater than -2 for this sequence? CGGCAGCAAUAUUACGGGAU
Output: 0 (no)

Task: Check the entry GCCGAGCAAUAUUACGAUUG : does self-splicing fitness (ln) equal or exceed -2?
Output: 0 (no)

Task: Evaluate ACCUAGCAAUAUUACGACGC : self-splicing fitness (ln) at minimum -2?
Output: 1 (yes)

Task: Threshold query (self-splicing fitness (ln) >= -2) on GCUGAGCAAUAUUACGUCCA
Output: 0 (no)

Task: Has ACGAAGCAAUAUUACGCGGU a recorded self-splicing fitness (ln) greater than or equal to -2?
Output: 1 (yes)

Task: Reported self-splicing fitness (ln) at or above -2? AGGGAGCAAUAUUACGGGAA
Output: 0 (no)

Task: Is self-splicing fitness (ln) for GUGCAGCAAUAUUACGAUGG at or above -2?
Output: 0 (no)

Task: Does the reported self-splicing fitness (ln) for GACUAGCAAUAUUACGAUUC fall at or above the -2 mark?
Output: 1 (yes)

Task: Is self-splicing fitness (ln) for CAAUAGCAAUAUUACGACAA at or above -2?
Output: 0 (no)

Task: Item AUUGAGCAAUAUUACGUGCA with self-splicing fitness (ln) of -2 or above?
Output: 1 (yes)

Task: Determine whether measured self-splicing fitness (ln) meets or exceeds -2 for GUCCAGCAAUAUUACGAACU
Output: 1 (yes)

Task: Entry CUCAAGCAAUAUUACGGUUA : is its self-splicing fitness (ln) no less than -2?
Output: 0 (no)

Task: Could you tell me if the measured self-splicing fitness (ln) of CGAAAGCAAUAUUACGGGAU reaches -2 or more?
Output: 0 (no)

Task: Reported self-splicing fitness (ln) at or above -2? AAUUAGCAAUAUUACGGGCC
Output: 1 (yes)

Task: Confirm if self-splicing fitness (ln) reported for the sequence AACCAGCAAUAUUACGAAGC is -2 or above.
Output: 1 (yes)

Task: Hello, I need to know if UGUAAGCAAUAUUACGUGCC has measured self-splicing fitness (ln) not below -2. Thanks!
Output: 1 (yes)

Task: Does the reported self-splicing fitness (ln) for AGUCAGCAAUAUUACGGUCC fall at or above the -2 mark?
Output: 1 (yes)

Task: Hi team, for GAUGAGCAAUAUUACGGAGC , is the recorded self-splicing fitness (ln) at or above -2?
Output: 1 (yes)

Task: Does the sequence GCAGAGCAAUAUUACGAGGU have recorded self-splicing fitness (ln) that is -2 or more?
Output: 0 (no)

Task: Reported self-splicing fitness (ln) at or above -2? AGAGAGCAAUAUUACGGUCG
Output: 1 (yes)

Task: Decide: is the reported value of self-splicing fitness (ln) for AGUUAGCAAUAUUACGUAUG equal to or greater than -2?
Output: 0 (no)

Task: Check this sequence for self-splicing fitness (ln) at or above -2: UGUAAGCAAUAUUACGGACU
Output: 1 (yes)

Task: Assess whether reported self-splicing fitness (ln) for CAACAGCAAUAUUACGCGGU sits at -2 or higher.
Output: 0 (no)

Task: Is self-splicing fitness (ln) at least -2? Consider AUUAAGCAAUAUUACGCGCG
Output: 1 (yes)

Task: Can UAGCAGCAAUAUUACGUCCC be said to have self-splicing fitness (ln) at or above -2?
Output: 1 (yes)

Task: Can GAAGAGCAAUAUUACGCCUU be said to have self-splicing fitness (ln) at or above -2?
Output: 1 (yes)

Task: Could you verify whether the entry AUCUAGCAAUAUUACGAUAA shows self-splicing fitness (ln) of no less than -2?
Output: 1 (yes)

Task: Decide: is the reported value of self-splicing fitness (ln) for CACUAGCAAUAUUACGCACG equal to or greater than -2?
Output: 1 (yes)

Task: Is it the case that AUUAAGCAAUAUUACGCGGC has self-splicing fitness (ln) reaching or exceeding -2?
Output: 0 (no)

Task: Determine whether measured self-splicing fitness (ln) meets or exceeds -2 for CCUAAGCAAUAUUACGUUCU
Output: 0 (no)

Task: Can CGUUAGCAAUAUUACGGGAU be said to have self-splicing fitness (ln) at or above -2?
Output: 0 (no)

Task: Hi team, for GUGGAGCAAUAUUACGUGUG , is the recorded self-splicing fitness (ln) at or above -2?
Output: 0 (no)

Task: Record UUAGAGCAAUAUUACGAUUU ; criterion: self-splicing fitness (ln) no lower than -2. Met?
Output: 1 (yes)

Task: Does self-splicing fitness (ln) meet or surpass -2 for CAAUAGCAAUAUUACGUCCA ?
Output: 0 (no)

Task: self-splicing fitness (ln) >= -2 for CGGAAGCAAUAUUACGCCAC ?
Output: 0 (no)

Task: State whether the measured self-splicing fitness (ln) reaches -2, counting equality as reaching it, for GAUAAGCAAUAUUACGUCAG
Output: 0 (no)

Task: Identify whether the reported self-splicing fitness (ln) of the following sequence is -2 or greater: CAAAAGCAAUAUUACGCUGG
Output: 1 (yes)

Task: Does self-splicing fitness (ln) meet or surpass -2 for AGUAAGCAAUAUUACGGUAC ?
Output: 0 (no)
